System: SF-295 CNS
EXPERIMENT: NCI-60 one-dose screen, 48 h
EXPERIMENTAL_SETUP: 10 µM unless noted
This is part of a sample that, as a whole, favours compounds with a hit. Of some 83,000 tested, about 20% had one in any assay. Activity calls are given as the source filed them. The calls were made as follows: active = growth percent below 10; inactive = the rest.
Allowed answers: Yes for active, No for inactive

Examples from the recorded data:
C#CCOc1ccc(C2=NN(CC3CC3)C3N=C(Cl)c4ncn(CC5CC5)c4N23)cc1OCC#C (stereo not drawn)
No
C=CCc1nc2ccccc2s1
No
CC1(C)CC[C@]2(C(N)=O)CC[C@]3(C)C(=CC[C@@H]4[C@@]5(C)C/C(=C/c6cccnc6)C(=O)C(C)(C)[C@@H]5CC[C@]43C)[C@@H]2C1
Yes
Cn1cc(-c2noc(-c3cn(C)c4ncc(F)cc34)n2)c2cc(Cl)ccc21
No
CC(C)CCNCC(C)(C)O
No

Request: Please let me know the test result on file for Nc1ccc(NC(=O)c2ccccc2)c2c1C(=O)c1ccccc1C2=O .
Response: No

Request: Please let me know the test result on file for CCOC(=O)C1=C(C(=O)c2ccc(Br)cc2)C(c2ccc(Br)cc2)NC(=S)N1 (stereo not drawn) .
Response: No

Request: Please let me know the test result on file for CC(=O)OC[C@]12CC[C@@H](C(=O)CBr)[C@@H]1[C@H]1CC[C@@H]3[C@@]4(C)CCCNC(C)(C)[C@@H]4CC[C@@]3(C)[C@]1(C)CC2 .
Response: Yes

Request: Please let me know the test result on file for COc1ccc(-c2cc(-c3ccccc3)nc(SCCCCCC(=O)NO)n2)cc1 .
Response: No

Request: Please let me know the test result on file for COCCCNc1nc(NC(=O)c2cc(OC)cc(OC)c2)cc(-c2cccnc2)n1 .
Response: No

Request: Please let me know the test result on file for NC(=S)Cc1ccccc1 .
Response: No

Request: Please let me know the test result on file for O=C1COCCN1c1ccc(NCc2cn(Cc3ccc(F)cc3)c3ccccc23)cc1 .
Response: No

----------
System: MDA-MB-435 melanoma
EXPERIMENT: NCI-60 one-dose screen, 48 h
EXPERIMENTAL_SETUP: 10 µM unless noted
The panel holds about 83,000 compounds, 20% with a hit somewhere; the sample as a whole holds those more often. Calls of active or inactive are those of the source. The calls were made as follows: active = growth percent below 10; inactive = the rest.
Allowed answers: 1.0 (active), 0.0 (inactive)

C#C[C@]1(O)CC[C@H]2[C@@H]3CC=C4c5nc(Nc6ccccn6)sc5CC[C@]4(C)[C@H]3CC[C@@]21C
1.0
C=C(C)[C@@H]1CC[C@]2(C(=O)OC)CC[C@]3(C)[C@H](CC[C@@H]4[C@@](C)(CCc5nn[nH]n5)[C@H](C(=C)C)CC[C@]43C)[C@@H]12
1.0
Cc1nc(-c2ccccc2)sc1CC#N
0.0
Cc1ccc(S(=O)(=O)Oc2ccc([N+](=O)[O-])cc2[N+](=O)[O-])cc1
0.0
O=C(Nc1cccc2ccccc12)c1cc2ccccc2cc1O
1.0
CC(C)C1=NOC(=O)C1=Cc1cn(-c2cccnc2)nc1-c1ccccc1
0.0
CCOc1ccc(/C=C(\C#N)c2cc3ccccc3[nH]2)cc1
1.0
CC(C)=CCC[C@](C)(O)[C@H]1CC[C@]2(C)[C@@H]1CC[C@@H]1[C@@]3(C)CC/C(=N/O)C(C)(C)[C@@H]3CC[C@]12C
1.0

Request: Please let me know the test result on file for CCOC(=O)c1nn(C2CCCCO2)c2ccc(NC(=O)Cn3nnc4ccccc43)cc12 (centres undefined) .
Response: 0.0

----------
Tested on: TK-10 renal
EXPERIMENT: NCI-60 one-dose screen, 48 h (100 = growth as untreated, 0 = no growth, -100 = all killed)
EXPERIMENTAL_SETUP: 10 µM unless noted
The panel holds about 83,000 compounds, 20% with a hit somewhere; the sample as a whole holds those more often. Activity calls are given as the source filed them. The calls were made as follows: active = growth percent below 10; inactive = the rest.
Reported growth values follow for various compounds

C#CCNC(=O)CC[C@]1(C)[C@H]2CC[C@@H]3[C@@H]([C@@](C)(O)CCC=C(C)C)CC[C@@]3(C)[C@]2(C)CC[C@H]1C(=C)C
70.5% [100 µM] (inactive)
COc1ccc(-c2cc(-c3ccc(OC)c(OC)c3)nc(SCCCCCC(=O)NO)n2)cc1
44.9% (inactive)

Record Cn1cc(-c2noc(C(=O)c3cn(C)c4ncc(Br)cc34)n2)c2ccccc21 , field growth: 107% (inactive)

Record O=C(NNc1ccc(-c2ccccc2)nn1)c1ccc(F)cc1 , field growth: 82.9% (inactive)

Record O=C(CCN1CCCCC1)c1ccc(Cl)cc1 , field growth: 103% (inactive)

----------
Test system: T-47D breast
EXPERIMENT: NCI-60 one-dose screen, 48 h
EXPERIMENTAL_SETUP: 10 µM unless noted
Procedure: Growth inhibition of the T-47D human tumor cell line is measured as a screen for anti-cancer activity. Cells are grown in 96 well plates and exposed to the test compound for 48 hours. Compounds are tested at a single concentration, which is 10^-5 M for most compounds. The reported endpoint is percent growth (GI% or GIPRCNT), where numbers from 0 - 100% represent growth inhibition, and numbers from -100% - 0 represent cell death. For example, a value of 40 represents 60% growth inhibition. […]
This is part of a sample that, as a whole, favours compounds with a hit. Of some 83,000 tested, about 20% had one in any assay. The source made the active and inactive calls. How the source made its calls: active means growth percent below 10; inactive means the rest.
Allowed answers: active, inactive

Examples from the recorded data:
CCc1cccc(Cl)c1
inactive
CC1(C)S[C@@H]2[C@H](NC(=O)[C@H](C(=O)O)c3cccs3)C(=O)N2[C@H]1C(=O)O
inactive
CCOC(=O)c1nn(C2CCCCO2)c2ccc(NC(=O)Cn3nnc4ccccc43)cc12 (configuration not stated)
inactive
C=C(C)[C@@H]1CC[C@]2(C(=O)NCCNCCNC(=O)OC(C)(C)C)CC[C@]3(C)[C@H](CC[C@@H]4[C@@]5(C)CCC(=O)C(C)(C)[C@@H]5CC[C@]43C)[C@@H]12
inactive
Cc1ccc(-n2nc3n(/c2=N\C(=O)NS(=O)(=O)c2ccc(C)cc2)CCN3C2=NCCN2)cc1
inactive
C=C(C)[C@@H]1CC[C@]2(C(=O)NCCNCCNCCN)CC[C@]3(C)[C@H](CC[C@@H]4[C@@]5(C)CC[C@H](O)C(C)(C)[C@@H]5CC[C@]43C)[C@@H]12
active
O=C(Nc1cccc2cccnc12)c1cc(C(=O)c2ccc(Cl)cc2)n2ccc(-c3ccncc3)cc12
inactive
O=C(Nc1ccc(Nc2ccncc2)cc1)c1ccc([N+](=O)[O-])cc1
inactive

Request: Please let me know the test result on file for CNC(=O)c1cc(Oc2ccc3nc(NC(=O)c4ccc5ncccc5c4)sc3c2)ccn1 .
Response: inactive

Request: Please let me know the test result on file for C=C(C)[C@@H]1CC[C@]2(C(=O)O)CC[C@]3(C)[C@H](CC[C@@H]4[C@@]5(C)C/C(=C/c6ccco6)C(=O)C(C)(C)[C@@H]5CC[C@]43C)[C@@H]12 .
Response: active

Request: Please let me know the test result on file for COc1ccccc1S(=O)Nc1ccccc1 (configuration not stated) .
Response: inactive

----------
System: MOLT-4 leukemia
EXPERIMENT: NCI-60 one-dose screen, 48 h
EXPERIMENTAL_SETUP: 10 µM unless noted
About 83,000 compounds went through this panel and 20% of them were active in at least one assay; those are over-represented in the sample as a whole. Active and inactive are the calls of the source. Rule for the calls: active = growth percent below 10; inactive = the rest.
Allowed answers: active, inactive

Examples from the recorded data:
C=CCCCCOc1ccccc1-c1cnc(OCCCCC=C)n1C
inactive
C=C(C)[C@@H]1CC[C@]2(c3ncc(C)o3)CC[C@]3(C)[C@H](CC[C@@H]4[C@@](C)(CCC#N)[C@H](C(=C)C)CC[C@]43C)[C@@H]12
active
Cc1cnc([C@]23CC[C@@H](C)[C@H](C)[C@H]2C2=CC[C@@H]4[C@@]5(C)Cc6c([nH]c7ccccc67)C(C)(C)[C@@H]5CC[C@@]4(C)[C@]2(C)CC3)o1
inactive

Request: Please let me know the test result on file for O=C(N/N=C1\c2ccccc2-c2cccc(C(=O)O)c21)c1ccc(O)cc1 .
Response: inactive

----------
System: EKVX NSCLC
EXPERIMENT: NCI-60 one-dose screen, 48 h
EXPERIMENTAL_SETUP: 10 µM unless noted
The panel holds about 83,000 compounds, 20% with a hit somewhere; the sample as a whole holds those more often. The source made the active and inactive calls. How the source made its calls: active means growth percent below 10; inactive means the rest.
Allowed answers: t (active), f (inactive)

Examples from the recorded data:
Cc1ccc(-c2cc(-c3ccc(C)cc3)nc(N3CCN(CCNc4ccnc5cc(Cl)ccc45)CC3)n2)cc1
f
Cc1ccc(-c2cn(C/C=C3\C=CN(S(=O)(=O)c4ccccc4)CC3)nn2)cc1
f
C#CCC(C(=O)OCC)C(=O)OCC
f

Request: Please let me know the test result on file for C[n+]1c(-c2ccccc2)c2cc(N)ccc2c2ccccc21 .
Response: f

Request: Please let me know the test result on file for O=C(C[n+]1ccn(CC(OCc2ccc(Cl)cc2Cl)c2ccc(Cl)cc2Cl)c1)c1ccc(F)cc1 (stereo not given) .
Response: t

Request: Please let me know the test result on file for COc1ccc2nc3cc(Cl)ccc3c(Nc3ccc(O)c(CN4CCCC4)c3)c2c1 .
Response: f

Request: Please let me know the test result on file for Clc1ccc2nc(-c3ccc(-c4ccc(/C=N/NC5=NCCN5)cc4)s3)cn2c1 .
Response: f

Request: Please let me know the test result on file for CC1Cc2c(Cl)ncnc2N(C)c2ccccc21 (stereo not given) .
Response: f

Request: Please let me know the test result on file for COc1c(C(C)=O)c(OCCCCOc2c(C(C)=O)c(OC)c3ccoc3c2OC)c(OC)c2occc12 .
Response: f

Request: Please let me know the test result on file for NC1=NC(=O)NC1(c1ccccc1)c1ccccc1 .
Response: f

Request: Please let me know the test result on file for COCCCNc1nc(NC(=O)c2cc(OC)cc(OC)c2)cc(-c2cccnc2)n1 .
Response: f
